Values were extracted from paper PMC7824787.

Consider molecules characterized by their IC50 with LbHsp90 (Leishmania braziliensis, UniProt A4HL70).
Sequence (A4HL70 entry or part of it): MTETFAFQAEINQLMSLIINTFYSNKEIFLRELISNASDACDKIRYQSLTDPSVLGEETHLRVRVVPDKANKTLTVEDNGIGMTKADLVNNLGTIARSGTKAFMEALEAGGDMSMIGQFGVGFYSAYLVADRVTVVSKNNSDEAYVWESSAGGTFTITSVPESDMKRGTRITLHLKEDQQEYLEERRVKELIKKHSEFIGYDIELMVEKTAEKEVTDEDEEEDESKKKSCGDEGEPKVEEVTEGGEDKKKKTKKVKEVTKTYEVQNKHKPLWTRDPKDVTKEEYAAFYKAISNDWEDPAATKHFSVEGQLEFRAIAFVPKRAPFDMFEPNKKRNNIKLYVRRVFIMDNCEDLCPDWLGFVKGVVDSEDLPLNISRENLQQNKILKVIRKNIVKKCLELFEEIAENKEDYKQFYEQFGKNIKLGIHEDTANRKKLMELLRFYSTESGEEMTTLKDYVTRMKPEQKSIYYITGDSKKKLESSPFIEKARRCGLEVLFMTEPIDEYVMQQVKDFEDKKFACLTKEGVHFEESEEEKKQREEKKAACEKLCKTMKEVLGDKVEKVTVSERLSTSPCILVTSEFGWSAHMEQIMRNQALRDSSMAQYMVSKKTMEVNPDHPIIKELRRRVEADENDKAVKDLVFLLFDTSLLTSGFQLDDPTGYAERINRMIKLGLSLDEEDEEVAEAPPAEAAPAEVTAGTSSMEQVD
Kindly answer with a numeric value in µM, unit omitted.

{"Test smiles": "CC1=C(O)C(=O)C=C2C1=CC=C1[C@@]2(C)CC[C@@]2(C)[C@@H]3C[C@](C)(C(=O)O)CC[C@]3(C)CC[C@]12C", "Endpoint unit": "µM", "Experimental result": 201}

Prompt: Returns the measured IC50 for the input molecule. Input: `CC1=C(O)C(=O)C=C2C1=CC=C1[C@@]2(C)CC[C@@]2(C)[C@@H]3C[C@](C)(C(=O)NCCN4CCCCC4)CC[C@]3(C)CC[C@]12C`
Response: 83

----------
# key: entry, value: melting point

Previously resolved entries follow.
{"Test smiles": "CC1=C(O)C(=O)C=C2C1=CC=C1[C@@]2(C)CC[C@@]2(C)[C@@H]3C[C@](C)(C(=O)NCCNc4ccnc5cc(Cl)ccc45)CC[C@]3(C)CC[C@]12C", "Experimental result": "165.7 to 167.9 °C"}
{"Test smiles": "CC1=C(O)C(=O)C=C2C1=CC=C1[C@@]2(C)CC[C@@]2(C)[C@@H]3C[C@](C)(C(=O)NCC45CCCN4CCC5)CC[C@]3(C)CC[C@]12C", "Experimental result": "250.8 to 254.7 °C"}
{"Test smiles": "CC1=C(O)C(=O)C=C2C1=CC=C1[C@@]2(C)CC[C@@]2(C)[C@@H]3C[C@](C)(C(=O)NCCCNc4ccnc5cc(Cl)ccc45)CC[C@]3(C)CC[C@]12C", "Experimental result": "211.1 to 215 °C"}
{"Test smiles": "C=CCSSCCNC(=O)[C@]1(C)CC[C@]2(C)CC[C@]3(C)C4=CC=C5C(=CC(=O)C(O)=C5C)[C@]4(C)CC[C@@]3(C)[C@@H]2C1", "Experimental result": "173.7 to 175.1 °C"}
{"Test smiles": "CC1=C(O)C(=O)C=C2C1=CC=C1[C@@]2(C)CC[C@@]2(C)[C@@H]3C[C@](C)(C(=O)NCCC45CCCN4CCC5)CC[C@]3(C)CC[C@]12C", "Experimental result": "235.7 to 237 °C"}
{"Test smiles": "CC1=C(O)C(=O)C=C2C1=CC=C1[C@@]2(C)CC[C@@]2(C)[C@@H]3C[C@](C)(C(=O)NCCN4CCCCC4)CC[C@]3(C)CC[C@]12C", "Experimental result": "137 to 138.6 °C"}

Prompt: Quick one: melting point for `CC1=C(O)C(=O)C=C2C1=CC=C1[C@@]2(C)CC[C@@]2(C)[C@@H]3C[C@](C)(C(=O)NCCN4CCCC4)CC[C@]3(C)CC[C@]12C` ?
Response: 135.6 to 138 °C
